The origin of these recorded values is ChEMBL document CHEMBL1201862.

Tested on: EKVX
EXPERIMENTAL PROTOCOL: NCI tumour cell line growth inhibition, 48 h
The source made the active and inactive calls. Rule as the data show it: active = GI50 up to about 1.1 µM and inactive = higher.
Lab note: assign the record to one of active, inactive

Consider the worked cases shown below.
| MOLECULE | TEST SYSTEM | GROUP |
| --- | --- | --- |
| O=[N+]([O-])/C(C(Cl)=C(Cl)Cl)=C(/Nc1cccc2cccnc12)n1nnc2ccccc21 | EKVX | inactive |
| Cc1ccc(S(=O)(=O)n2cncc2CO)cc1 | EKVX | inactive |
| COc1cc(/C=C2\CCC/C(=C\c3ccc(O)c(OC)c3)C2=O)ccc1O | EKVX | inactive |

Consider the record given below.
Q: // outcome(item) with item = `Cc1c2cc[n+](C)cc2c(C)c2c1[nH]c1ccc(Oc3ccccc3)cc12`
A: inactive

----------
Tested on: IGROV-1
EXPERIMENTAL PROTOCOL: NCI tumour cell line growth inhibition, 48 h
Activity calls are given as the source filed them. Cut-off read from the data, not from the text of the source: active = GI50 up to about 1.1 µM and inactive = higher.
Mark one answer only. Choices: YES = active, NO = inactive

Here are 10 compounds together with their reported answers.
| COMPOUND | GROUP |
| --- | --- |
| COc1ccc(CC2CCc3nc(N)nc(N)c3C2)cc1OC (stereo not drawn) | YES |
| C/C(=N\NC(N)=O)c1sc(-c2nc(C)c(/C(C)=N/NC(N)=O)s2)nc1C | NO |
| O=C1NC(=S)N(c2cccc3ccccc23)C(=O)/C1=C/c1c[nH]c2ccccc12 | NO |
| Cc1nc2[nH]ncn2c(=O)c1CCO | NO |
| CC1(C=O)CC(CCc2ccccc2)NC1Cc1ccc(O)cc1 (stereo not drawn) | NO |
| Cc1c(N2C(=O)C(Cl)C2c2ccc(Cl)cc2)c(=O)n(-c2ccccc2)n1C (stereo not drawn) | NO |
| CCCCCCCCC(=O)NCCN(CCN)C(=O)CCCCCCCC | NO |
| COc1cc(/C=C/c2ccc(O)c(OC)c2)cc(OC)c1 | NO |
| Cc1ccc(C2SCC(=O)N2c2ccc(-c3ccc(-n4c(-c5ccccc5)nc5ccccc5c4=O)cc3)cc2)cc1 (stereo not drawn) | NO |
| CC1=NN(c2cccc(Cl)c2)C2(SCC(=O)N2c2nc3ccccc3s2)/C1=C\c1ccccc1O (stereo not drawn) | NO |

Q: How was c1ccc(N2N=NC3C4CC(C5c6ccccc6C45)C32)cc1 (stereo not drawn) classified in this test?
A: NO

Q: Per the records of this test, what outcome belongs to CC(=O)OC(CN1CCN(c2ccccn2)CC1)Cn1sc2nc(C)cc(C)c2c1=O (stereo not drawn) ?
A: NO

Q: Please let me know the test result on file for `CCN(CCCl)CCCCNc1c2ccccc2nc2ccc(OC)cc12` .
A: YES

Q: Answer briefly: the call reported for C=C1CCC2C(C)(CO)C(O)CCC2(C)C1CC(O)C1=CCOC1=O (stereo not drawn) in this assay.
A: NO

Q: Hi, sorry to bother you, what did the test record for `NC(=S)N1N=C2c3ccccc3CC[C@H]2[C@@H]1c1cccs1` ?
A: NO

----------
Test system: SK-MEL-5
EXPERIMENTAL PROTOCOL: NCI tumour cell line growth inhibition, 48 h
The source made the active and inactive calls. Cut-off read from the data, not from the text of the source: active = GI50 up to about 1.1 µM and inactive = higher.
Measured GI50, listed per entry for reference.

For orientation, consider the following solved cases.
| COMPOUND | GI50 |
| --- | --- |
| CN(C)c1ccc(C2CC(C)(O)Oc3cc4c(cc32)OCO4)cc1 (stereo not drawn) | 30.6 µM (inactive) |
| N#C/C(=C\c1ccccc1)c1nc(-c2cc3ccccc3oc2=O)cs1 | > 100 µM (inactive) |

Note to self: GI50 recorded for CN1C(=O)CC2(C)c3cc(O)ccc3N(C)C12 (stereo not drawn) was 22.5 µM (inactive)
